# credit: patent US7601746B2

- Tested system: human TPO receptor (hTPOR) (Homo sapiens, UniProt P40238)
- Construct: expressed in transfected cells; host or cells: BaF-B03 (murine IL-3 dependent cell line)
- Sequence (P40238 26-635): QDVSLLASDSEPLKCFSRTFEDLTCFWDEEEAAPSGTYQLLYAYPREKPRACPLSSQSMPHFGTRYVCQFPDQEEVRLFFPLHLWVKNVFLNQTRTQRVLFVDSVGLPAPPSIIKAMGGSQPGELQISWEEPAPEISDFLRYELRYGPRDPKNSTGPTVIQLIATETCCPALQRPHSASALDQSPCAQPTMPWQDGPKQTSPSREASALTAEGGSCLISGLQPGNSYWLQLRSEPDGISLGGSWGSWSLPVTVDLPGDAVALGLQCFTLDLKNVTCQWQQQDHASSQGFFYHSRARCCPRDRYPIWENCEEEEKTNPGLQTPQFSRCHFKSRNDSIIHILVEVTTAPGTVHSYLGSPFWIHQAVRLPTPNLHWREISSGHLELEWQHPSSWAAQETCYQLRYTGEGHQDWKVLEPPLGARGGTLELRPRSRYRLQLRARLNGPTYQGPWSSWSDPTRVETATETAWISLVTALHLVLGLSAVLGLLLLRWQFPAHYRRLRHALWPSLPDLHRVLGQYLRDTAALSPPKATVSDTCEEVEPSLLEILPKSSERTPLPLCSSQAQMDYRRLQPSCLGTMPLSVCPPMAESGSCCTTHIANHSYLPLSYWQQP
- Measurement description: Thrombopoietic activity: proliferation of TPO dependent BaF/hTPOR cells (WST-1, absorbance at 450 nm)
- Type: cell-based
- Measurement context: 20 h + 4 h WST-1, ED50 = half concentration of the concentration showing the maximum thrombopoietic activity, Table 1
Parameter measured: EC50 (nM)

Worked examples, 5 compounds total:
Note to self: EC50 of CCCCCOCCc1cccc(-c2csc(NC(=O)c3cc(Cl)c(/C=C(\C)C(=O)O)c(Cl)c3)n2)c1OC with human TPO receptor (hTPOR) (Homo sapiens, UniProt P40238) was 18.4

Note to self: EC50 of CCCOC(CCC)c1cccc(-c2csc(NC(=O)c3cc(Cl)c(C=C(C)C(=O)O)c(Cl)c3)n2)c1F (stereo not shown) with human TPO receptor (hTPOR) (Homo sapiens, UniProt P40238) was 0.97

Note to self: EC50 of CCCc1cccc2c1OCc1sc(NC(=O)c3cc(F)c(/C=C(\C)C(=O)O)c(F)c3)nc1-2 with human TPO receptor (hTPOR) (Homo sapiens, UniProt P40238) was 12.9

Note to self: EC50 of CCOCCCCOC(CC)c1cccc(-c2csc(NC(=O)c3cc(F)c(C=C(C)C(=O)O)c(F)c3)n2)c1F (stereo not shown) with human TPO receptor (hTPOR) (Homo sapiens, UniProt P40238) was 1.14

Note to self: EC50 of CCC(OCCC(C)C)c1cccc(-c2csc(NC(=O)c3cc(Cl)c(C=C(C)C(=O)O)c(Cl)c3)n2)c1F (stereo not shown) with human TPO receptor (hTPOR) (Homo sapiens, UniProt P40238) was 0.8

(P) CCCCCOC(CCC)c1cccc(-c2csc(NC(=O)c3cc(F)c(C=C(C)C(=O)O)c(F)c3)n2)c1F (stereo not shown)
(Q) COc1c(CCCOCC2CCCC2)cccc1-c1csc(NC(=O)c2cc(F)c(/C=C(\C)C(=O)O)c(F)c2)n1
Incoming: # compare EC50 for P vs Q ; return the one with the smaller value Answer with the label corresponding to your selection.
Outgoing: P
